- Procedure Summary: Neuroprotection against 6-OHDA-induced oxidative toxicity in PC12 cells (MTT)
- Reported Conditions: rat
Measurement Name: viability at 24 h, 50 µM (%)
Give bare numbers, in %.

Query NCCc1cc(O)c(O)cc1O [6-OHDA, 6-Hydroxydopamine] yields viability at 24 h, 50 µM of 50.9

---

Measurement Name: melting point

For orientation, consider the following solved cases.
O=C(Nc1ccc2[nH]ccc2c1)c1cc(Cl)cc(Cl)c1 [3w, 3,5-Dichloro-N-(1H-indol-5-yl)benzamide] ... 199 to 201 °C
O=C(Nc1ccc2[nH]ccc2c1)c1cccc([N+](=O)[O-])c1 [3f, N-(1H-indol-5-yl)-3-nitrobenzamide] ... 214 to 215 °C
O=C(Nc1ccc2[nH]ccc2c1)c1cccc(F)c1 [3i, 3-Fluoro-N-(1H-indol-5-yl)benzamide] ... 166 to 168 °C
O=C(Nc1ccc2[nH]ccc2c1)c1cccc(OC(F)(F)F)c1 [3s] ... 130 to 132 °C
O=C(Nc1ccc2[nH]ccc2c1)c1ccc(F)cc1C(F)(F)F [3l] ... 153 to 154 °C

For each of the molecules below, state melting point.
1. N#Cc1cccc(C(=O)Nc2ccc3[nH]ccc3c2)c1 [3m, 3-Cyano-N-(1H-indol-5-yl)benzamide]
2. O=C(Nc1ccc2[nH]ccc2c1)c1cccc(C(F)(F)F)c1 [3u]
3. O=C(Nc1ccc2[nH]ccc2c1)c1ccccc1Br [3b, 2-Bromo-N-(1H-indol-5-yl)benzamide]
4. CC(C)(C)c1ccc(C(=O)Nc2ccc3[nH]ccc3c2)cc1 [3q]
5. O=C(Nc1ccc2[nH]ccc2c1)c1c(F)cccc1F [3h, 2,6-Difluoro-N-(1H-indol-5-yl)benzamide]
6. O=C(Nc1ccc2[nH]ccc2c1)c1ccccc1F [3k, 2-Fluoro-N-(1H-indol-5-yl)benzamide]
7. O=C(Nc1ccc2[nH]ccc2c1)c1ccc(Br)cc1 [3c, 4-Bromo-N-(1H-indol-5-yl)benzamide]

["188 to 189 °C", "148 to 150 °C", "231 to 233 °C", "189 to 190 °C", "236 to 237 °C", "179 to 181 °C", "209 to 210 °C"]

For each of the molecules below, state melting point.
1. O=C(Nc1ccc2[nH]ccc2c1)c1ccc(Cl)cc1Cl [3d, 2,4-Dichloro-N-(1H-indol-5-yl)benzamide]
2. O=C(Nc1ccc2[nH]ccc2c1)c1ccc(OC(F)(F)F)cc1 [3t]
3. O=C(Nc1ccc2[nH]ccc2c1)c1ccc(C(F)(F)F)cc1 [3v]
4. O=C(Nc1ccc2[nH]ccc2c1)c1ccc([N+](=O)[O-])cc1 [3g, N-(1H-indol-5-yl)-4-nitrobenzamide]

1. 161 to 162 °C
2. 195 to 196 °C
3. 206 to 207 °C
4. 262 to 264 °C

Query O=C(Nc1ccc2[nH]ccc2c1)c1c(Cl)cccc1Cl [3x, 2,6-Dichloro-N-(1H-indol-5-yl)benzamide] yields melting point of 221 to 223 °C

Where do the numbers come from? From paper PMC8533333.
